B1: H2-Kb / B6 (parent)
chain 1: GDSVTQTEGLVTVTEGLPVKLNCTYQTTYLTIAFFWYVQYLNEAPQVLLKSSTDNKRTEHQGFHATLHKSSSSFHLQKSSAQLSDSALYYCALSLGNAGAKLTFGGGTRLTVRP
chain 2: EAAVTQSPRNKVTVTGGNVTLSCRQTNSHNYMYWYRQDTGHGLRLIHYSYGAGNLQIGDVPDGYKATRTTQEDFFLLLELASPSQTSLYFCASSDGMISSSYEQYFGPGTRLTVL
chain 3: not shown
chain 4: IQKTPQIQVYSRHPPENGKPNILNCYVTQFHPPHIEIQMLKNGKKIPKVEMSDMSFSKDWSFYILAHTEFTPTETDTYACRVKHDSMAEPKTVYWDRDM
chain 5: SIINFEKL

Variants of: B1
Assay: % of reporter cells activated (NFAT-GFP), raw; note: test concentration or dose not given here
Parameters: unit not given here
Conditions: with B6

MUTANT_NAME: chain 5 I3D
ratio to parent: 1.01

MUTANT_NAME: chain 5 N4T
ratio to parent: 1.1

MUTANT_NAME: chain 5 I3S
ratio to parent: 1.15

MUTANT_NAME: chain 5 K7D
ratio to parent: 0.819

MUTANT_NAME: chain 5 I3E
ratio to parent: 1.03

MUTANT_NAME: chain 5 F5S
ratio to parent: 0.98

MUTANT_NAME: chain 5 I3T
ratio to parent: 1.16

MUTANT_NAME: chain 5 K7C
ratio to parent: 1

MUTANT_NAME: chain 5 E6Y
ratio to parent: 0.685

MUTANT_NAME: chain 5 I2E
ratio to parent: 0.879

MUTANT_NAME: chain 5 L8K
ratio to parent: 0.819

MUTANT_NAME: chain 5 I3W
ratio to parent: 1.19

MUTANT_NAME: chain 5 I2P
ratio to parent: 1.16

MUTANT_NAME: chain 5 I3Q
ratio to parent: 1.06

MUTANT_NAME: chain 5 S1A
ratio to parent: 1.1

MUTANT_NAME: chain 5 K7G
ratio to parent: 0.913

MUTANT_NAME: chain 5 E6H
ratio to parent: 0.919

MUTANT_NAME: chain 5 L8W
ratio to parent: 0.604

MUTANT_NAME: chain 5 I3P
ratio to parent: 1.11

MUTANT_NAME: chain 5 K7T
ratio to parent: 0.94

MUTANT_NAME: chain 5 F5D
ratio to parent: 1.25

MUTANT_NAME: chain 5 K7Q
ratio to parent: 1.09

MUTANT_NAME: chain 5 K7P
ratio to parent: 0.758

MUTANT_NAME: chain 5 E6V
ratio to parent: 0.51

MUTANT_NAME: chain 5 L8A
ratio to parent: 0.53

MUTANT_NAME: chain 5 L8F
ratio to parent: 0.523

MUTANT_NAME: chain 5 N4I
ratio to parent: 1.05

MUTANT_NAME: chain 5 K7L
ratio to parent: 0.785

MUTANT_NAME: chain 5 K7H
ratio to parent: 0.926

MUTANT_NAME: chain 5 N4S
ratio to parent: 1.03

MUTANT_NAME: chain 5 E6I
ratio to parent: 0.55

MUTANT_NAME: chain 5 N4V
ratio to parent: 0.893

MUTANT_NAME: chain 5 L8H
ratio to parent: 0.859

MUTANT_NAME: chain 5 I2W
ratio to parent: 0.926

MUTANT_NAME: chain 5 F5Y
ratio to parent: 1.28

MUTANT_NAME: chain 5 K7E
ratio to parent: 1.11

MUTANT_NAME: chain 5 S1C
ratio to parent: 1.05

MUTANT_NAME: chain 5 E6L
ratio to parent: 0.866

MUTANT_NAME: chain 5 F5G
ratio to parent: 1.17

MUTANT_NAME: chain 5 I2A
ratio to parent: 1.13

MUTANT_NAME: chain 5 F5H
ratio to parent: 1.28

MUTANT_NAME: chain 5 F5R
ratio to parent: 0.765

MUTANT_NAME: chain 5 I2G
ratio to parent: 0.966

MUTANT_NAME: chain 5 I2Y
ratio to parent: 1.07

MUTANT_NAME: chain 5 S1L
ratio to parent: 1.13

MUTANT_NAME: chain 5 L8S
ratio to parent: 0.53

MUTANT_NAME: chain 5 E6A
ratio to parent: 1.21

MUTANT_NAME: chain 5 S1D
ratio to parent: 1.13

MUTANT_NAME: chain 5 I2L
ratio to parent: 1.08

MUTANT_NAME: chain 5 I2M
ratio to parent: 0.98

MUTANT_NAME: chain 5 E6F
ratio to parent: 0.792

MUTANT_NAME: chain 5 K7A
ratio to parent: 0.832

MUTANT_NAME: chain 5 S1F
ratio to parent: 1.18

MUTANT_NAME: chain 5 S1K
ratio to parent: 0.993

MUTANT_NAME: chain 5 E6P
ratio to parent: 1

MUTANT_NAME: chain 5 L8R
ratio to parent: 0.812

MUTANT_NAME: chain 5 S1V
ratio to parent: 0.826

MUTANT_NAME: chain 5 S1P
ratio to parent: 0.953

MUTANT_NAME: chain 5 N4Y
ratio to parent: 0.913

MUTANT_NAME: chain 5 S1W
ratio to parent: 1.01

MUTANT_NAME: chain 5 I2H
ratio to parent: 1.15

MUTANT_NAME: chain 5 L8V
ratio to parent: 0.403

MUTANT_NAME: chain 5 I2V
ratio to parent: 0.987

MUTANT_NAME: chain 5 L8C
ratio to parent: 0.725

MUTANT_NAME: chain 5 E6D
ratio to parent: 0.792

MUTANT_NAME: chain 5 S1G
ratio to parent: 1.01

MUTANT_NAME: chain 5 K7I
ratio to parent: 0.899

MUTANT_NAME: chain 5 I3R
ratio to parent: 0.678

MUTANT_NAME: chain 5 N4D
ratio to parent: 1.29

MUTANT_NAME: chain 5 F5A
ratio to parent: 1.15

MUTANT_NAME: chain 5 I3C
ratio to parent: 1.07

MUTANT_NAME: chain 5 S1Y
ratio to parent: 1

MUTANT_NAME: chain 5 N4W
ratio to parent: 0.832

MUTANT_NAME: chain 5 N4E
ratio to parent: 0.913

MUTANT_NAME: chain 5 F5P
ratio to parent: 0.973

MUTANT_NAME: chain 5 S1H
ratio to parent: 1.12

MUTANT_NAME: chain 5 E6C
ratio to parent: 0.879

MUTANT_NAME: chain 5 N4H
ratio to parent: 0.973

MUTANT_NAME: chain 5 S1N
ratio to parent: 0.872

MUTANT_NAME: chain 5 N4L
ratio to parent: 2.7

MUTANT_NAME: chain 5 E6W
ratio to parent: 0.758

MUTANT_NAME: chain 5 N4R
ratio to parent: 1

MUTANT_NAME: chain 5 I2Q
ratio to parent: 0.886

MUTANT_NAME: chain 5 I2F
ratio to parent: 1.01

MUTANT_NAME: chain 5 L8N
ratio to parent: 0.765

MUTANT_NAME: chain 5 F5L
ratio to parent: 1.08

MUTANT_NAME: chain 5 I3G
ratio to parent: 1.01

MUTANT_NAME: chain 5 K7M
ratio to parent: 0.765

MUTANT_NAME: chain 5 L8E
ratio to parent: 0.329

MUTANT_NAME: chain 5 I2R
ratio to parent: 0.765

MUTANT_NAME: chain 5 S1R
ratio to parent: 0.611
